Assay: Approximate solubility of freebase in 12 solvents at RT
Assay type: physicochemical
Details: organic solvent or mixture, thermodynamic from solid, MeOH
value-type: solubility

Ask: I am curious: what solubility value has been reported for COc1cc(Nc2nccc(Nc3cccnc3-c3ccccn3)n2)ccc1N1CCN(C)CC1 [Freebase Form A] ?
Reply: 2400 to 4800 µg/mL

---

Experiment: Pharmacokinetics and relative bioavailability after a single oral dose (two liquid formulations, powder in capsule)
Format: in vivo, male Beagle dogs
Conditions: male, Beagle, dog, plasma, po, 5 mg/kg, Formulation #1 (Table 43), 5 mg/kg oral, male Beagle dogs, plasma, Mean; read-out: Vz/F
value-type: Vd/F (L/kg)
Give bare numbers, in L/kg.

Ask: I am curious: what Vd/F value has been reported for COc1cc(Nc2nccc(Nc3cccnc3-c3ccccn3)n2)ccc1N1CCN(C)CC1 [Compound 2] ?
Reply: 147
